Molecular target: UniProt O14980
Sequence (O14980 whole entry): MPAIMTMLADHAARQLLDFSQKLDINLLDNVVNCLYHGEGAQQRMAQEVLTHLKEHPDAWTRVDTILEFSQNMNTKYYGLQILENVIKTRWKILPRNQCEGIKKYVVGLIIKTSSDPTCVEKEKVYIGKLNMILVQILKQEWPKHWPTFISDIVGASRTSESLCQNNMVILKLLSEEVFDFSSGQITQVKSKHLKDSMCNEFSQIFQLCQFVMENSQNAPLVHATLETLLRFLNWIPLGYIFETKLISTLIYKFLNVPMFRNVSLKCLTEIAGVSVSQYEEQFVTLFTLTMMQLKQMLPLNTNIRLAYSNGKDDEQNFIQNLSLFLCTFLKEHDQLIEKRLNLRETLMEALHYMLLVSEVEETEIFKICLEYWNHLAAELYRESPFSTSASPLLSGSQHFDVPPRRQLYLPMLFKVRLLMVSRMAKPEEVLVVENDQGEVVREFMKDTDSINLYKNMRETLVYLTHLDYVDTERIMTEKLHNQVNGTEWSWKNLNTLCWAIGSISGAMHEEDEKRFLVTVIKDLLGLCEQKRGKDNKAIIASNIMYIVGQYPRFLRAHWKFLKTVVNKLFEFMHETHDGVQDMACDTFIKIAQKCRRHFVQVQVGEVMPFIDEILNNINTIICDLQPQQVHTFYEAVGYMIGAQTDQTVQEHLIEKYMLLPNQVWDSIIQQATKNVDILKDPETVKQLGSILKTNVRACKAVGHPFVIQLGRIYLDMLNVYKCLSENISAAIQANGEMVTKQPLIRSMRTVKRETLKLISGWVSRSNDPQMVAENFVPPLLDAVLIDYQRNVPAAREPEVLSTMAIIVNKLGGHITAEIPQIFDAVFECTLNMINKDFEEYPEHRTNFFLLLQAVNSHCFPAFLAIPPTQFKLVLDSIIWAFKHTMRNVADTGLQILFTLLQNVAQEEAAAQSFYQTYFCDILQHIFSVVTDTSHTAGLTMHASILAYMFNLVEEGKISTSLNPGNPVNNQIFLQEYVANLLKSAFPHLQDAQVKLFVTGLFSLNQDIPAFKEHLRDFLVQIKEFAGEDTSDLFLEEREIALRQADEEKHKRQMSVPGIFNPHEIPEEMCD
Experiment: Inhibition of CRM1 (unknown origin) binding to GST-tagged NES PKI assessed as CRM1/NES band ratio at 20 uM incubated for 1.5 hrs by Coomassie brilliant blue staining based pull-down assay
measured.quantity: Ratio

Recorded Ratio, per entry:
INSERT INTO results (mol_smiles, measured) VALUES
  ('Cc1ccc(Cl)cc1N1CCN(c2ccc(C(=O)O)cc2NC(=O)c2ccc(Br)cc2)CC1', 0.24),
  ('Cc1ccc(Cl)cc1N1CCN(c2ccc(C(=O)O)cc2NC(=O)c2ccc(Cl)cc2)CC1', 0.26);

(P) O=C(O)c1ccc(N2CCN(c3cccc(C(F)(F)F)c3)CC2)c(NC(=O)c2ccc(Br)cc2)c1
(Q) O=C(O)c1ccc(N2CCN(c3cc(C(F)(F)F)ccc3Cl)CC2)c(NC(=O)c2ccc(Br)cc2)c1
// which entry has the larger Ratio value, P or Q ? Indicate which entry you chose by stating its label.
P

(a) Cc1ccc(Cl)cc1N1CCN(c2ccc(C(=O)O)cc2NC(=O)c2ccc(C(F)(F)F)cc2)CC1
(b) COc1ccc(Cl)cc1N1CCN(c2ccc(C(=O)O)cc2NC(=O)c2ccc(Cl)cc2)CC1
(c) Cc1ccc(C(F)(F)F)cc1N1CCN(c2ccc(C(=O)O)cc2NC(=O)c2ccc(Cl)cc2)CC1
Form: Sort by [Ratio] Order [ ascending ] As an answer, provide the labels arranged in the order called for.
c, a, b
(c: 0.2, a: 0.35, b: 0.85)
